We begin with a simple list: items and their reported fold more potent against USP30 than against the cathepsins, minimum.
# Test system: Cathepsins B, K, L, S, V
# Assay text: Cathepsin IC50, range over B, K, L, S, V
# Format: biochemical
# Measurement conditions: lowest of cathepsins B, K, L, S and V
Give your result in fold as a bare value.

Compound	Meas value
N#Cc1cccc(-c2ccn3c(C(=O)N[C@@H]4CCN(C#N)C4)cnc3c2)c1 [D]	56
N#CN1CCC(C(=O)Nc2nnc(-c3ccccc3)s2)C1 (centres unmarked) [F, reference compound]	0.34
C[C@H]1CN(C#N)C[C@@H]1NC(=O)c1cnc(-c2ccccc2)s1 [C, reference compound]	58
N#CN1CC[C@H](C(=O)Nc2ncc(-c3ccccc3)s2)C1 [E, reference compound]	3.2

Here is another compound to look at.
Entry N#CN1CCC(NC(=O)c2cc(-c3cccc(Cl)c3)no2)C1 (centres unmarked) [B, reference compound] has what fold more potent against USP30 than against the cathepsins, minimum?
18
